Cited source for all entries: patent US20120178766A1

biological target: rat TRPA1 (Rattus norvegicus); construct: expressed in transfected cells; host or cells: CHO cells (Zeocin selection); experiment: 45Calcium uptake assay: inhibition of AITC induced cellular uptake of radioactive calcium, rat TRPA1 expressing CHO cells; type: cell-based; conditions: 10.0 μM compound, AITC 10 μM, read-out: rat TRPA1 Percentage inhibition at 10.0 μM
Parameter: inhibition at 10 µM (%)

>>> meas_value("Cn1c(=O)c2c(CC(=O)Nc3nc(-c4cc(F)c(OCC(F)(F)F)c(Cl)c4)cs3)coc2n(C)c1=O")
99.2
>>> meas_value("Cn1c(=O)c2c(CC(=O)Nc3nc(-c4ccc(F)c(Br)c4)cs3)coc2n(C)c1=O")
100
>>> meas_value("Cc1oc2c(c1CC(=O)Nc1nc(-c3cc(Cl)cc(C(F)(F)F)c3)cs1)c(=O)n(C)c(=O)n2C")
99.8
>>> meas_value("Cn1c(=O)c2c(CC(=O)Nc3nc(-c4ccc(C(F)(F)F)c(F)c4)cs3)coc2n(C)c1=O")
100
>>> meas_value("Cc1oc2c(c1CC(=O)Nc1nc(-c3cccc(C(F)(F)F)c3)cs1)c(=O)n(C)c(=O)n2C")
100
>>> meas_value("Cc1oc2c(c1CC(=O)Nc1nc(-c3ccc(F)c(Cl)c3F)cs1)c(=O)n(C)c(=O)n2C")
94.8
>>> meas_value("Cc1oc2c(c1CC(=O)Nc1nc(-c3ccc(C(F)(F)F)cc3F)cs1)c(=O)n(C)c(=O)n2C")
99.7
>>> meas_value("Cn1c(=O)c2c(CC(=O)Nc3nc(-c4ccc(OC(F)(F)F)c(F)c4)cs3)coc2n(C)c1=O")
99.8
>>> meas_value("Cn1c(=O)c2c(CC(=O)Nc3nc(-c4ccc(OC(F)F)c(F)c4)cs3)coc2n(C)c1=O")
95.5
>>> meas_value("Cn1c(=O)c2c(CC(=O)Nc3nc(-c4ccc(F)c(OC(F)(F)F)c4)cs3)coc2n(C)c1=O")
98.6
>>> meas_value("Cn1c(=O)c2c(CC(=O)Nc3ccc(Oc4ccc(C(F)(F)F)cc4)cc3)coc2n(C)c1=O")
100
>>> meas_value("Cn1c(=O)c2c(CC(=O)Nc3nc(-c4cc(F)c(OC(F)F)c(F)c4)cs3)coc2n(C)c1=O")
100
>>> meas_value("Cc1oc2c(c1CC(=O)Nc1nc(-c3cccc(OC(F)(F)F)c3)cs1)c(=O)n(C)c(=O)n2C")
100
>>> meas_value("Cc1oc2c(c1CC(=O)Nc1nc(-c3ccc(F)c(C(F)(F)F)c3)c(C)s1)c(=O)n(C)c(=O)n2C")
99.5
>>> meas_value("Cn1c(=O)c2c(CC(=O)Nc3nc(-c4ccc(OCC(F)(F)F)c(Br)c4)cs3)coc2n(C)c1=O")
100

---

biological target: human TRPA1 (Homo sapiens); construct: expressed in transfected cells; host or cells: CHO cells (G-418 selection); assay: 45Calcium uptake assay: inhibition of AITC induced cellular uptake of radioactive calcium, human TRPA1 expressing CHO cells; format: cell-based; conditions: 10.0 μM compound, AITC 30 μM, read-out: human TRPA1 Percentage inhibition at 10.0 μM
Parameter: inhibition at 10 µM (%)

>>> meas_value("Cn1c(=O)c2c(CC(=O)Nc3nc(-c4ccc(Cl)c(Cl)c4)cs3)coc2n(C)c1=O")
99.4
>>> meas_value("Cc1oc2c(c1CC(=O)Nc1nc(-c3cccc(OC(F)(F)F)c3)cs1)c(=O)n(C)c(=O)n2C")
99.2
>>> meas_value("CC(C)COc1c(Cl)cc(-c2csc(NC(=O)Cc3coc4c3c(=O)n(C)c(=O)n4C)n2)cc1Cl")
100
>>> meas_value("Cn1c(=O)c2c(CC(=O)Nc3nc(-c4ccc(C(F)(F)F)cc4)cs3)coc2n(C)c1=O")
99.6

---

molecular target: rat TRPA1 (Rattus norvegicus, UniProt Q6RI86); construct: expressed in transfected cells; host or cells: CHO cells (Zeocin selection); assay: 45Calcium uptake assay: inhibition of AITC induced cellular uptake of radioactive calcium, rat TRPA1 expressing CHO cells; type: cell-based; conditions: 10.0 μM compound, AITC 10 μM, read-out: rat TRPA1 Percentage inhibition at 10.0 μM
Sequence (Q6RI86 whole entry): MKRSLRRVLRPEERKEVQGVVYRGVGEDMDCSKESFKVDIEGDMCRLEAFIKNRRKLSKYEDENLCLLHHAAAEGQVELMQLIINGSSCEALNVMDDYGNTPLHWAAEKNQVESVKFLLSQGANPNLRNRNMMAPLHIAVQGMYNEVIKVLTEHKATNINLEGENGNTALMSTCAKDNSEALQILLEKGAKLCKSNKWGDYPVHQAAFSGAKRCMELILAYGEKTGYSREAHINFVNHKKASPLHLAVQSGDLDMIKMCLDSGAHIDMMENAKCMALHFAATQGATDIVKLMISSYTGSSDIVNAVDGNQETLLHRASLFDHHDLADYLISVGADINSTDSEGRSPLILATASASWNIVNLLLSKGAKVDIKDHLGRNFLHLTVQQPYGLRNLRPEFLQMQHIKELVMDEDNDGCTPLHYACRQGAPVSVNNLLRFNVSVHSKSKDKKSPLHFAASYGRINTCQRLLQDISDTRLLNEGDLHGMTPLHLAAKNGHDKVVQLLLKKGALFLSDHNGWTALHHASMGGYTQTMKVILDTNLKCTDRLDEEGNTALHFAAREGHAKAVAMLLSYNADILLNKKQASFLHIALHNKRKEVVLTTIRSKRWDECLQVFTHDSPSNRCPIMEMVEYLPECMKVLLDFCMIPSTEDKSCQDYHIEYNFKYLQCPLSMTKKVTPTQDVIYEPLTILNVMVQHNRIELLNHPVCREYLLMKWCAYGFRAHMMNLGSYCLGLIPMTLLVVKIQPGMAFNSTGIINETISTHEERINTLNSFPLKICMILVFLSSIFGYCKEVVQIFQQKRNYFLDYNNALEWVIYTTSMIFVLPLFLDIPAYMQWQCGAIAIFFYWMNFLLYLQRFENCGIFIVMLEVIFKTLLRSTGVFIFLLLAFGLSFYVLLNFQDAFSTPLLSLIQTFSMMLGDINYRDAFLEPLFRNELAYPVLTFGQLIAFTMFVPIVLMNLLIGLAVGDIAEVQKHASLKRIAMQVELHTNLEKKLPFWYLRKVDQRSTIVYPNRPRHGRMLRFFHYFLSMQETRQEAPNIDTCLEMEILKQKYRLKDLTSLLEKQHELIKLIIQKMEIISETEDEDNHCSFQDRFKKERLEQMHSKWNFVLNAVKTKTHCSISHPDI
Parameter: inhibition at 10 µM (%)

>>> meas_value("Cn1c(=O)c2c(CC(=O)Nc3nc(-c4cc(Cl)c(OCC(F)(F)F)c(Cl)c4)cs3)coc2n(C)c1=O [Example 47]")
100
>>> meas_value("CC(C)COc1c(F)cc(-c2csc(NC(=O)Cc3coc4c3c(=O)n(C)c(=O)n4C)n2)cc1F [Example 40]")
99.6
>>> meas_value("CC(C)COc1c(Cl)cc(-c2csc(NC(=O)Cc3coc4c3c(=O)n(C)c(=O)n4C)n2)cc1Cl [Example 41]")
100
>>> meas_value("Cc1oc2c(c1CC(=O)Nc1nc(-c3cc(Cl)c(OCC(C)C)c(Cl)c3)cs1)c(=O)n(C)c(=O)n2C [Example 82]")
100
>>> meas_value("Cc1oc2c(c1CC(=O)Nc1nc(-c3cc(F)c(OCC(C)C)c(F)c3)cs1)c(=O)n(C)c(=O)n2C [Example 81]")
99.2
>>> meas_value("Cc1oc2c(c1CC(=O)Nc1nc(-c3cc(Cl)c(OC(F)F)c(Cl)c3)cs1)c(=O)n(C)c(=O)n2C [Example 86]")
95.4
>>> meas_value("Cn1c(=O)c2c(CC(=O)Nc3nc(-c4cc(Cl)c(OCC(C)(C)C)c(Cl)c4)cs3)coc2n(C)c1=O [Example 43]")
100
>>> meas_value("Cn1c(=O)c2c(CC(=O)Nc3nc(-c4ccc(C(F)(F)F)cc4F)cs3)coc2n(C)c1=O [Example 22]")
100
>>> meas_value("Cc1oc2c(c1CC(=O)Nc1nc(-c3cc(C(F)(F)F)ccc3F)cs1)c(=O)n(C)c(=O)n2C [Example 63]")
99.8
>>> meas_value("Cn1c(=O)c2c(CC(=O)Nc3nc(-c4ccc(OCC(C)(C)C)c(F)c4)cs3)coc2n(C)c1=O [Example 26]")
99.9
>>> meas_value("Cn1c(=O)c2c(CC(=O)Nc3nc(-c4ccc(Cl)c(Cl)c4Cl)cs3)coc2n(C)c1=O [Example 34]")
99.3
>>> meas_value("Cc1oc2c(c1CC(=O)Nc1nc(-c3ccc(OCC(F)(F)F)c(F)c3)cs1)c(=O)n(C)c(=O)n2C [Example 73]")
100
>>> meas_value("Cc1oc2c(c1CC(=O)Nc1nc(-c3ccc(OC(F)F)c(Cl)c3)cs1)c(=O)n(C)c(=O)n2C [Example 72]")
100
>>> meas_value("Cn1c(=O)c2c(CC(=O)Nc3nc(-c4cccc(C(F)(F)F)c4F)cs3)coc2n(C)c1=O [Example 20]")
99.8
>>> meas_value("Cn1c(=O)c2c(CC(=O)Nc3nc(-c4cc(F)c(OCCC(F)(F)F)c(F)c4)cs3)coc2n(C)c1=O [Example 49]")
97.7

---

molecular target: UniProt Q6RI86; assay: 45Calcium uptake assay: inhibition of AITC induced cellular uptake of radioactive calcium, rat TRPA1 expressing CHO cells; conditions: class symbols, AITC 10 μM
Reported values of IC50 for individual entries

Use these answered entries as a reference point.
>>> meas_value("Cn1c(=O)c2c(CC(=O)Nc3nc(-c4ccc(OC(F)(F)F)c(F)c4)cs3)coc2n(C)c1=O")
"50 to 100 nM"
>>> meas_value("CC(C)COc1c(Cl)cc(-c2csc(NC(=O)Cc3coc4c3c(=O)n(C)c(=O)n4C)n2)cc1Cl")
"< 50 nM"
>>> meas_value("Cc1oc2c(c1CC(=O)Nc1nc(-c3ccc(OC(F)(F)F)c(Cl)c3)cs1)c(=O)n(C)c(=O)n2C")
"< 50 nM"
>>> meas_value("Cn1c(=O)c2c(CC(=O)Nc3nc(-c4ccc(F)c(OC(F)(F)F)c4)cs3)coc2n(C)c1=O")
"< 50 nM"

Shift focus to the following entry.
Per the record, `Cn1c(=O)c2c(CC(=O)Nc3nc(-c4cc(Cl)c(OCC(F)(F)F)c(Cl)c4)cs3)coc2n(C)c1=O` has IC50 of < 50 nM

---

biological target: human TRPA1 (Homo sapiens, UniProt O75762); construct: expressed in transfected cells; host or cells: CHO cells (G-418 selection); assay: 45Calcium uptake assay: inhibition of AITC induced cellular uptake of radioactive calcium, human TRPA1 expressing CHO cells; type: cell-based; settings: 10.0 μM compound, AITC 30 μM, read-out: human TRPA1 Percentage inhibition at 10.0 μM
Sequence (O75762 whole entry): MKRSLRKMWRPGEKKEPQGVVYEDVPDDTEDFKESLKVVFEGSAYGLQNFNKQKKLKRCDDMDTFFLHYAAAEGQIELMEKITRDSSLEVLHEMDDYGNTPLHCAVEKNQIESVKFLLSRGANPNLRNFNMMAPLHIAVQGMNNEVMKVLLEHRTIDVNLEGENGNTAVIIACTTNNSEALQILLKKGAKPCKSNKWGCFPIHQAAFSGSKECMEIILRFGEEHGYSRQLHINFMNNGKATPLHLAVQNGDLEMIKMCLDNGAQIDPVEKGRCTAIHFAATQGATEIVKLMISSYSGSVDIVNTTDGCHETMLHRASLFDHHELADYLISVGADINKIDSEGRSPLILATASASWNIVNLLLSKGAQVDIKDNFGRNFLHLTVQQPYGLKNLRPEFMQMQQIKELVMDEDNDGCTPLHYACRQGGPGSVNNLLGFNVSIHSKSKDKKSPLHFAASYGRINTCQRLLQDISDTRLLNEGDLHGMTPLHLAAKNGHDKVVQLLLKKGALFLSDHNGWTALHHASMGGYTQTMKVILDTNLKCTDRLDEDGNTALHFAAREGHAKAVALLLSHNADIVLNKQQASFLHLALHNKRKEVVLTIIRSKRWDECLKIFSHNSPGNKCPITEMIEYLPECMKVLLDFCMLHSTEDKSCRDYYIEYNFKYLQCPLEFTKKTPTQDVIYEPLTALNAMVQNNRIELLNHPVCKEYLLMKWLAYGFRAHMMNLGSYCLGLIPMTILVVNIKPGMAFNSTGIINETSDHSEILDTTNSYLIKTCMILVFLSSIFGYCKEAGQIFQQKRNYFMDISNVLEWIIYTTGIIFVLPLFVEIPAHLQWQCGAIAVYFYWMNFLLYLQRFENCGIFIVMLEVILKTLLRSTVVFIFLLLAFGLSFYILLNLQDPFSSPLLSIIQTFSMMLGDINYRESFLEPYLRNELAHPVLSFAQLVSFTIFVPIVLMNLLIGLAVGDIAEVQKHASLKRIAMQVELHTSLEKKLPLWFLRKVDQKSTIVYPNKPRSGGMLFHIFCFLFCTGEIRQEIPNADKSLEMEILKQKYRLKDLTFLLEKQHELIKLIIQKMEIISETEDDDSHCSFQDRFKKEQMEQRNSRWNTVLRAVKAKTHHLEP
Parameter: inhibition at 10 µM (%)

>>> meas_value("Cn1c(=O)c2c(CC(=O)Nc3nc(-c4cc(F)c(OCC(F)(F)F)c(F)c4)cs3)coc2n(C)c1=O [Example 46]")
100
>>> meas_value("CC(C)COc1ccc(-c2csc(NC(=O)Cc3coc4c3c(=O)n(C)c(=O)n4C)n2)cc1Br [Example 29]")
99.8
>>> meas_value("Cn1c(=O)c2c(CC(=O)NCCc3ccc(Cl)cc3Cl)coc2n(C)c1=O [Example 2]")
28.4

I = Cn1c(=O)c2c(CC(=O)Nc3nc(-c4ccc(OCC(C)(C)C)c(F)c4)cs3)coc2n(C)c1=O [Example 26]
II = Cn1c(=O)c2c(CC(=O)Nc3nc4c(F)cc(F)cc4s3)coc2n(C)c1=O [Example 4]
Input pair: I , II . Output: entry with lower inhibition at 10 µM. Returns: label corresponding to the selected item.
II
